# Tested on: biotinyl-Ile-oxazolone
# experimental-protocol: self-aminoacylation, catalytic enhancement (BIO) (fold over background); higher = more active; k-Seq, kA / k0A0; sequences stand for … in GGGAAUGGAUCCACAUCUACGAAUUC…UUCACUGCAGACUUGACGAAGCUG
Fewer inactive variants are shown than the library holds.
Binned self-aminoacylation; ranges: bucket A (below 1), bucket B (1 to below 2), bucket C (2 or more)

GUUACCCUGGUCGUCGAGUGA [Fam2.1 aminoacylation ribozyme variant]; bucket B
AUUCACCUAGCUCAUCGAGUG [Fam2.2 aminoacylation ribozyme variant]; bucket A
CUUCACCUACGUCAUCGGGUG [Fam2.2 aminoacylation ribozyme variant]; bucket C
GUACUUCAAACAUUCGGUCUG [Fam1A.1 aminoacylation ribozyme variant]; bucket B
UUUACCCUGGUCAUCGAGUGU [Fam2.1 aminoacylation ribozyme variant]; bucket C
CUACAUCAAACAAUCGGUCCG [Fam1A.1 aminoacylation ribozyme variant]; bucket A

Now examine the next entry.
**Query** // bin(item) where item = AUUAACCUGGUCAUCGAGAGA [Fam2.1 aminoacylation ribozyme variant]
**Result** bucket A
